- measuredOn: COX-1 (Homo sapiens)
- experimentNotes: Assay of COX-1 activity from U937 cell microsomes
- Assay type: biochemical
- Set-up: endogenous in cells; host or cells: U937 cells, 100,000 x g microsomal pellet
- settings: PGE2, read-out: COX-1 (IC50 µM) U-937
Each item that follows carries a reported IC50.

Examples with their reported IC50 follow.
{"smilesRecord": "CS(=O)(=O)c1ccc(-c2cnn(CC(F)(F)F)c(=O)c2-c2ccccc2)cc1", "IC50": "> 10 µM"}
{"smilesRecord": "CS(=O)(=O)c1ccc(-c2cnn(Cc3ccccc3)c(=O)c2-c2ccc(F)cc2)cc1", "IC50": "3 to 10 µM"}
{"smilesRecord": "CS(=O)(=O)c1ccc(-c2cnn(Cc3ccccc3)c(=O)c2-c2ccc(F)c(F)c2)cc1", "IC50": "3 to 10 µM"}
{"smilesRecord": "CS(=O)(=O)c1ccc(-c2cnn(Cc3ccccn3)c(=O)c2-c2ccccc2)cc1", "IC50": "> 10 µM"}
{"smilesRecord": "CS(=O)(=O)c1ccc(-c2cnn(Cc3ccc(F)cc3)c(=O)c2-c2ccccc2)cc1", "IC50": "> 10 µM"}

Q: Name the recorded IC50 of the item CC(C)n1ncc(-c2ccc(S(C)(=O)=O)cc2)c(-c2ccccc2)c1=O in your answer.
Result: > 10 µM

Q: Identify IC50 associated with the compound CS(=O)(=O)c1ccc(-c2cnn(CC3CC3)c(=O)c2-c2ccccc2)cc1
Result: > 10 µM

Q: Identify the reported IC50 for the following entry. CS(=O)(=O)c1ccc(-c2cnn(Cc3ccccc3)c(=O)c2-c2ccccc2)cc1
Result: > 10 µM

Q: Using the record for COC(=O)Cn1ncc(-c2ccc(S(C)(=O)=O)cc2)c(-c2ccccc2)c1=O , state its measured IC50.
Result: > 10 µM

Q: Specify IC50 for CS(=O)(=O)c1ccc(-c2cnn(CC3CC3)c(=O)c2-c2ccc(F)c(F)c2)cc1 and stop.
Result: > 10 µM

* * *

- measuredOn: COX-1 (Homo sapiens, UniProt P23219)
- Sequence (P23219 24-599): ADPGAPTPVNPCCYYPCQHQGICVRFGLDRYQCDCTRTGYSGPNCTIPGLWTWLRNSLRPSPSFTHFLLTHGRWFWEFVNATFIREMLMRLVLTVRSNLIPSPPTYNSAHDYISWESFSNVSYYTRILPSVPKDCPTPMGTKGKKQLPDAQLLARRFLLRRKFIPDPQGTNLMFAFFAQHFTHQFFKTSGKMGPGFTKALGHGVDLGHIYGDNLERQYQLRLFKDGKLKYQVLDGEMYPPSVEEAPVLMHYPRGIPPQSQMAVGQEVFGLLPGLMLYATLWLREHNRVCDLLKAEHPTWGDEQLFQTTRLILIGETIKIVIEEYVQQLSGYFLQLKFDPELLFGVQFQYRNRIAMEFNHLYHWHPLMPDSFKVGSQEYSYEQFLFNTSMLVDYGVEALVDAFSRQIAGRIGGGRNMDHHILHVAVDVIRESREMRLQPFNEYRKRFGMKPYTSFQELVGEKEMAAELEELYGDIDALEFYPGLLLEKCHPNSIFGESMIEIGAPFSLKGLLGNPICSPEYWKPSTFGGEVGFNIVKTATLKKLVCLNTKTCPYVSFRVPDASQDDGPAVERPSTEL
- experimentNotes: Human whole blood assay, COX-1 (clotting-induced TxB2 production)
- Assay type: cell-based
- Parameters: endogenous in cells; host or cells: platelets in fresh human whole blood left to clot
- settings: 1 hour at 37°C, read-out: COX-1 (IC50 µM) HWB
measureName: IC50

Q: Identify measured IC50 associated with CS(=O)(=O)c1ccc(-c2cnn(Cc3ccccc3)c(=O)c2-c2ccccc2)cc1
Result: > 50 µM

* * *

- measuredOn: COX-2 (Homo sapiens)
- Construct: endogenous in cells; host or cells: fresh heparinized human whole blood from volunteers, induced with LPS
- Sequence (P35354 18-604): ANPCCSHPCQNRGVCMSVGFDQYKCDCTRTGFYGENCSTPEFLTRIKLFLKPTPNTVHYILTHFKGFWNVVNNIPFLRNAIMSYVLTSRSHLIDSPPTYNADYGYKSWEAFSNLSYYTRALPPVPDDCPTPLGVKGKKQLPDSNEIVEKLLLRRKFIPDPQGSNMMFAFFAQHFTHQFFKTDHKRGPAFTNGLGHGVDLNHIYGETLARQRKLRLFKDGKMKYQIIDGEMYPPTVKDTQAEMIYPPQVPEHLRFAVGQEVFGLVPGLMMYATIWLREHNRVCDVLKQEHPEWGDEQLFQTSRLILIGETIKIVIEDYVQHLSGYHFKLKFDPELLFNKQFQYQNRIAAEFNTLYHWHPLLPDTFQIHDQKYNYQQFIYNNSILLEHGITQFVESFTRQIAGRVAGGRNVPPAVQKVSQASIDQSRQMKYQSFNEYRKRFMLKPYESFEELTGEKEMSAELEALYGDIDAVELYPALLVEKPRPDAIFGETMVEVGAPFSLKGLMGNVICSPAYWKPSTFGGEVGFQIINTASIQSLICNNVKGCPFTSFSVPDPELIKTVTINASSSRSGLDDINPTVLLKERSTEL
- experimentNotes: Human whole blood assay, COX-2 (LPS-induced PGE2 production)
- Assay type: cell-based
- settings: 24 hours at 37°C, read-out: COX-2 (IC50 µM) HWB
measureName: IC50

These solved cases illustrate the format of a correct answer.
{"smilesRecord": "CS(=O)(=O)c1ccc(-c2cnn(Cc3ccccn3)c(=O)c2-c2ccccc2)cc1", "measuredOn": "COX-2 (Homo sapiens)", "IC50": "> 33 µM"}
{"smilesRecord": "CC(C)n1ncc(-c2ccc(S(C)(=O)=O)cc2)c(-c2ccccc2)c1=O", "measuredOn": "COX-2 (Homo sapiens)", "IC50": "2.6 µM"}
{"smilesRecord": "Cn1ncc(-c2ccc(S(C)(=O)=O)cc2)c(-c2ccccc2)c1=O", "measuredOn": "COX-2 (Homo sapiens)", "IC50": "21 µM"}
{"smilesRecord": "COC(=O)Cn1ncc(-c2ccc(S(C)(=O)=O)cc2)c(-c2ccccc2)c1=O", "measuredOn": "COX-2 (Homo sapiens)", "IC50": "9.2 µM"}

Now for another entry.
Q: Find the measured IC50 of CS(=O)(=O)c1ccc(-c2cnn(CC(F)(F)F)c(=O)c2-c2ccccc2)cc1 with COX-2 (Homo sapiens) as test system.
Result: 11.1 µM
